molecular target: human Kv1.3 (Homo sapiens, UniProt P22001); construct: expressed in transfected cells; host or cells: stably transfected cells; test: Kv1.3 Autopatch Electrophysiology; format: cell-based; conditions: 1 μM compound; CHO cells stably transfected with human Kv1.3; AutoPatch whole cell mode; room temperature; read-out: Kv 1.3% Inhibition at 1 μM
Sequence (P22001 whole entry): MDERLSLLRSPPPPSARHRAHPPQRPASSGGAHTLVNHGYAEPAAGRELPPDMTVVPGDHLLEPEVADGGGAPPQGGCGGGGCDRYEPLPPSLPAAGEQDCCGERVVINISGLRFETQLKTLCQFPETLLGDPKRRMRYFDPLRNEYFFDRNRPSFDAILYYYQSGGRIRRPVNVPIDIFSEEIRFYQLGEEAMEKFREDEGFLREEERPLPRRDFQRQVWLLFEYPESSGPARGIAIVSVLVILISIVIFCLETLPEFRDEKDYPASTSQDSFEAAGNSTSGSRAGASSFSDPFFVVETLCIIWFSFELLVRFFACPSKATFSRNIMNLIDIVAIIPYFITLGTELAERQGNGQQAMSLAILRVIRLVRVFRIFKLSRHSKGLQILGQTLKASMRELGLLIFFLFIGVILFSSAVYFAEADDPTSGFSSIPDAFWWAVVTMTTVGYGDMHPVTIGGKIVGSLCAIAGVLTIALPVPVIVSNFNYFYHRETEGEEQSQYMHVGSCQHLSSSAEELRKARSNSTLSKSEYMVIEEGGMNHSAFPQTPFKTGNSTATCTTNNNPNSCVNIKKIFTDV
result-type: inhibition at 1 µM (%)
Report the figure in % without appending any unit label.

Fc1ccc(-c2csc3ccnc(NCc4ccc5c(c4)OCCO5)c23)cc1 [Example 17]
59.6
Cc1ccc(-c2csc3c(-c4ccncc4)cnc(NCc4ccccc4)c23)cc1 [Example 40]
49.9
Cc1ccc(-c2csc3ccnc(NCc4ccco4)c23)cc1 [Example 29]
66.2
c1csc(CNc2nccc3scc(-c4ccc5c(c4)OCO5)c23)c1 [Example 16]
90.3

Now examine the next entry.
Please fill in: inhibition at 1 µM reported for c1ccc(-c2csc3ccnc(NCc4ccco4)c23)cc1 [Example 26] = 48.4

###

molecular target: human Kv1.3 (Homo sapiens); construct: expressed in transfected cells; host or cells: stably transfected cells; assay: Kv1.3 Autopatch Electrophysiology; format: cell-based; settings: 1 μM compound; CHO cells stably transfected with human Kv1.3; AutoPatch whole cell mode; room temperature; read-out: Kv 1.3% Inhibition at 1 μM
Is inhibition at 1 µM at least 70%? Then satisfied. If not, not satisfied.

Consider the worked cases shown below.
Cc1ccc(-c2csc3c(-c4ccc(N(C)C)cc4)cnc(NCc4ccccc4)c23)cc1
not satisfied
Cc1ccc(-c2csc3ccnc(NCc4ccccc4)c23)cc1
satisfied
c1ccc(CNc2nccc3scc(-c4ccc5c(c4)OCO5)c23)cc1
not satisfied

Now, please, on to the next compound.
Query :: # bool: inhibition at 1 µM of `c1ccc(-c2csc3ccnc(NCc4ccccn4)c23)cc1` >= 70%
Result :: not satisfied

###

target: human Kv1.5 (Homo sapiens, UniProt P22460); construct: expressed in transfected cells; host or cells: stably transfected cells; assay: Kv1.5 Autopatch Electrophysiology; type: cell-based; conditions: 1 μM compound; CHO cells stably transfected with human Kv1.5; AutoPatch whole cell mode; room temperature; read-out: Kv 1.5% Inhibition at 1 μM
Sequence (P22460 whole entry): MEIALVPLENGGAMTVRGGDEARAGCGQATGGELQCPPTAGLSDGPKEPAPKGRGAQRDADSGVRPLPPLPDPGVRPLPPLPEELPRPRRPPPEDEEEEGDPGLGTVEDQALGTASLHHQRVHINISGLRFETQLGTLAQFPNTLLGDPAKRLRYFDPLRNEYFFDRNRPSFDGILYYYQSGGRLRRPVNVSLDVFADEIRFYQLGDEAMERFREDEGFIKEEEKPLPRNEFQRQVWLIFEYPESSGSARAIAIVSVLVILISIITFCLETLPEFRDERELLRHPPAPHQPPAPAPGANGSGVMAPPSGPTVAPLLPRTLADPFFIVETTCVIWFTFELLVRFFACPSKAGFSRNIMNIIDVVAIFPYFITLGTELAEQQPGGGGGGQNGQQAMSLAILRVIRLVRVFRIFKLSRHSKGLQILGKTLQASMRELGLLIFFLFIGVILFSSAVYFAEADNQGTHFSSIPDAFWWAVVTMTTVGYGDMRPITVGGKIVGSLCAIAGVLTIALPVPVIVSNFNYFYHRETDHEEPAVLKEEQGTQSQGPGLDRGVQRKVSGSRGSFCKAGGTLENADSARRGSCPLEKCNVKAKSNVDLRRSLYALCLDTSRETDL
result-type: inhibition at 1 µM (%)
Quick reminder: number only, in %, skip the unit.

c1ccc(CNc2nccc3scc(-c4ccccc4)c23)cc1 [Example 21]
77.4
Cc1ccc(-c2csc3c(-c4cccc(F)c4)cnc(NCc4ccccc4)c23)cc1 [Example 44]
18.8
Cc1ccc(-c2csc3c(-c4ccccc4O)cnc(NCc4ccccc4)c23)cc1 [Example 35]
33.3

Then this compound:
Lab note: c1csc(CNc2nccc3scc(-c4ccc5c(c4)OCO5)c23)c1 [Example 16] gave inhibition at 1 µM of 81.2

###

Molecular target: human Kv1.3 (Homo sapiens)
Construct: expressed in transfected cells; host or cells: stably transfected cells
Test: Kv1.3 Autopatch Electrophysiology
Assay type: cell-based
Details: 1 μM compound; CHO cells stably transfected with human Kv1.3; AutoPatch whole cell mode; room temperature; read-out: Kv 1.3% Inhibition at 1 μM
Method: Kv1.3 Autopatch Electrophysiology Method Cells stably transfected with cDNA for human Kv1.3 (in pcDNA3.1) were grown in Ex-cell 302 serum-free medium for CHO cells, supplemented with 10 μl/ml [100×] glutamine, 500 μg/ml G418 ([…]), and 1% HT supplement (50×, hypoxanthine and thymidine). Compounds were tested on these cells using the AutoPatch technology in whole cell mode. The external bathing solution contained (in mM): 150 NaCl, 10 KCl, 1 MgCl2, 3 CaCl2, 10 HEPES, pH 7.4 with NaOH. […]
The following compounds are listed with their measured inhibition at 1 µM values.
Expressed in %, but write only the number.

c1ccc(CNc2nccc3scc(-c4ccccc4)c23)cc1
61.5
COc1cccc(-c2csc3ccnc(NCc4ccc5c(c4)OCCO5)c23)c1
73.5
Fc1ccc(-c2csc3ccnc(NCc4ccccc4)c23)cc1
68.6
Cc1ccc(-c2csc3c(-c4cccnc4)cnc(NCc4ccccc4)c23)cc1
50.1
Cc1ccc(-c2csc3c(-c4ccc(O)cc4)cnc(NCc4ccccc4)c23)cc1
15.7

The recorded inhibition at 1 µM for `Cc1ccc(-c2csc3c(-c4ccccc4F)cnc(NCc4ccccc4)c23)cc1` is 13.6

The measured inhibition at 1 µM associated with `Cc1ccc(-c2csc3c(-c4ccccc4)cnc(NCc4ccccc4)c23)cc1` reads 8.1

The compound identified as `Cc1cc2scc(-c3ccccc3)c2c(NCc2ccccc2)n1` registered its inhibition at 1 µM at 23.7

// inhibition at 1 µM value for `COc1cccc(-c2csc3ccnc(NCc4ccccc4)c23)c1` : 58
